Biological target: T1, MPDZ_12, O75970
T1 sequence (O75970 1857-1958, limits assumed, looked up): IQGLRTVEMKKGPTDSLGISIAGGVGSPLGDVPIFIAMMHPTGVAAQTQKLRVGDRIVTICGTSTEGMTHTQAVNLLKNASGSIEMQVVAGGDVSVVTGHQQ
Experiment: holdup assay
Design: key: below the threshold = too weak to quantify, mostly under pKd 3.1 to 4
Settings: plain residues with an end cap or a label only (N-terminal biotin on a linker: ado-ado)
experimental readout: pKd

Completed entries (count: 6):
{"binder": "NISARRFTLC [FAM167B, Q9BTA0]", "pKd": 3.52}
{"binder": "PALKNGQYWV [CSPG4, Q6UVK1]", "pKd": 3.61}
{"binder": "EPAKETTTNV [SLC2A3, P11169]", "pKd": "below the threshold"}
{"binder": "RDYTQSSSSL [GRM5, P41594]", "pKd": "below the threshold"}
{"binder": "ELKAEDEVQI [DCHS2, Q6V1P9]", "pKd": "below the threshold"}
{"binder": "KIEDVEITLV [FCHSD2, O94868]", "pKd": "below the threshold"}

Sample KKTPVSRSHL [SLC22A3, O75751] — what was its pKd?
below the threshold

Which pKd value is on record for PSVYSRSQYV [CLDN8, P56748] ?
below the threshold

Return reported pKd; argument: PSDSVGKDVF [EGLN1, Q9GZT9]
below the threshold

# get_value(readout='pKd', item= SRPHTNETSL [MCC, P23508] )
below the threshold

Form field: reported pKd of PLATCDETSI [SEMA4F, O95754]
below the threshold

I am curious: what pKd value has been reported for GVHSNDHSVV [LPAR1, Q92633] ?
below the threshold

Given the binder SGDGKTSVWI [GJC1, P36383] , what is its reported pKd?
4.1

What pKd value was documented for this binder, EAVTVESTSL [SLC22A11, Q9NSA0] ?
below the threshold

What measured pKd goes with DYSNLRETDI [ADRA1D, P25100] ?
below the threshold

# pKd lookup, item PGKKPEDSRV [SLCO2B1, O94956]
below the threshold
